- assay-overview: Selectivity ratio of IC50 for inhibition of 20S proteasome beta 5c subunit (unknown origin) to IC50 for inhibition of 20S proteasome subunit beta-5i
Decide using Ratio IC50 alone. Strictly below 6: fulfilled. Equal to or above 6: not fulfilled.

# example entries with known answers
• CC(C)(C)NC(=O)CC[C@H](NC(=O)CCNC(=O)/C(C#N)=C/c1ccc(Cl)cc1)C(=O)N[C@@H](Cc1ccccc1)C(=O)NCc1cccc2ccccc12 = not fulfilled
• CC(C)(C)NC(=O)CC[C@H](NC(=O)CCNC(=O)CCl)C(=O)N[C@@H](Cc1ccccc1)C(=O)NCc1ccc(OC(F)(F)F)cc1 = not fulfilled
• Cc1ccc(/C=C(\C#N)C(=O)NCCC(=O)N[C@@H](CCC(=O)NC(C)(C)C)C(=O)N[C@@H](Cc2ccccc2)C(=O)NCc2ccc(C)cc2)cc1 = not fulfilled
• Cc1ccc(CNC(=O)[C@H](Cc2ccccc2)NC(=O)[C@H](CCC(=O)NC(C)(C)C)NC(=O)CCNC(=O)/C(C#N)=C/C2CC2)cc1 = not fulfilled
• COC(=O)C1CCN(C(=O)C[C@H](NC(=O)[C@H](CNC(=O)CCl)NC(=O)CN2CCOCC2)C(=O)N[C@@H](Cc2ccccc2)C(=O)NCc2ccc(C)cc2)CC1 = not fulfilled

Query block: Does the reported Ratio IC50 of COc1ccc(C[C@H](NC(=O)[C@H](CCC(=O)NC(C)(C)C)NC(=O)CCNC(=O)CCl)C(=O)NCc2ccc(C)cc2)cc1 stay below 6?
Result block: not fulfilled

Query block: Does the reported Ratio IC50 of CC(C)(C)NC(=O)CC[C@H](NC(=O)CCNC(=O)CCl)C(=O)N[C@@H](Cc1ccccc1)C(=O)NCc1ccc2ccccc2c1 stay below 6?
Result block: not fulfilled

Query block: Does the reported Ratio IC50 of CC(=O)N[C@@H](CNC(=O)CCl)C(=O)N[C@@H](CCC(=O)NC(C)(C)C)C(=O)N[C@@H](Cc1ccccc1)C(=O)NCc1ccc(C)cc1 stay below 6?
Result block: fulfilled

Query block: Does the reported Ratio IC50 of Cc1ccc(CNC(=O)[C@H](Cc2ccccc2)NC(=O)[C@H](CCC(=O)NC(C)(C)C)NC(=O)CCNC(=O)/C(C#N)=C/C(C)C)cc1 stay below 6?
Result block: fulfilled

Query block: Does the reported Ratio IC50 of Cc1ccc(CNC(=O)CNC(=O)[C@H](CCC(=O)NC(C)(C)C)NC(=O)[C@H](CNC(=O)CCl)NC(=O)CN2CCOCC2)cc1 stay below 6?
Result block: not fulfilled

Query block: Does the reported Ratio IC50 of CC(C)(C)NC(=O)CC[C@H](NC(=O)CCNC(=O)CCl)C(=O)N[C@@H](Cc1ccccc1)C(=O)NCc1ccc(N2CCOCC2)cc1 stay below 6?
Result block: fulfilled

Query block: Does the reported Ratio IC50 of Cc1ccc(CNC(=O)[C@H](Cc2ccccc2)NC(=O)[C@H](CCC(=O)NC(C)(C)C)NC(=O)CCNC(=O)/C(C#N)=C/c2nccs2)cc1 stay below 6?
Result block: fulfilled
